- Tested on: mouse lymphoma cell line
- testDescription: Cell death of lymphoma (survival rate, WST-1)
- Assay type: cell-based
- conditionSummary: 72 h, IC50=50% survival rate, three days
experimentalReadout: IC50 (µg/mL)
Give the value in µg/mL but do not write µg/mL after it.

[in] In one line, give reported IC50 of the entry `COCCN(CCOC)Cc1c(O)ccc2c(-c3cc4cc(Br)ccc4oc3=O)cc(=O)oc12` .
[out] 3.28

[in] In one line, give reported IC50 of the entry `O=c1cc(-c2cc3ccccc3oc2=O)c2ccc(O)c(CN3CCOCC3)c2o1` .
[out] 2.05

[in] In one line, give reported IC50 of the entry `CCN(CC)Cc1c(O)ccc2c(-c3cc4ccccc4oc3=O)cc(=O)oc12` .
[out] 5.08

[in] In one line, give reported IC50 of the entry `COCCN(CCOC)Cc1c(O)ccc2c(-c3cc4cc(F)ccc4oc3=O)cc(=O)oc12` .
[out] 0.21

[in] In one line, give reported IC50 of the entry `CC(=O)OCc1c(OC(C)=O)ccc2c(-c3cc4ccccc4oc3=O)cc(=O)oc12` .
[out] 8.3

[in] In one line, give reported IC50 of the entry `CC1CCN(Cc2c(O)ccc3c(-c4cc5ccccc5oc4=O)cc(=O)oc23)CC1` .
[out] 1.64

[in] In one line, give reported IC50 of the entry `O=c1cc(-c2cc3cc(F)ccc3oc2=O)c2ccc(O)c(CN3CCOCC3)c2o1` .
[out] 0.12

[in] In one line, give reported IC50 of the entry `CN(C)CCNCc1c(O)ccc2c(-c3cc4ccccc4oc3=O)cc(=O)oc12` .
[out] 5.37

[in] In one line, give reported IC50 of the entry `O=c1cc(-c2cc3ccccc3oc2=O)c2ccc(O)c(CN3CCCCC3)c2o1` .
[out] 10.1
